System: human diploid fibroblasts (HDF cells; HDF25, HDF45, HDF80)
Assay: Inhibition of human cell aging: senescent cells by beta-galactosidase staining
Assay type: cell-based
Settings: human diploid fibroblasts passage 45, beta-galactosidase staining
value.kind: SENESCENT CELLS (%) HDF45
Respond numerically; units are % and should not be typed.

The examples below pair each entry with its known result.
compound: c1coc(CNc2ncnc3c2ncn3C2CCCCO2)c1 (stereo not shown) [KTHP, kinetin-9-tetrahydropyranyl, reference compound]
output.unit: %
SENESCENT CELLS (%) HDF45: 4
//
compound: Oc1ccc(CNc2ncnc3c2nc(Cl)n3C2CCCO2)cc1O (stereo not shown)
output.unit: %
SENESCENT CELLS (%) HDF45: 4
//
compound: Clc1nc2c(NCc3ccco3)ncnc2n1C1CCCO1 (stereo not shown)
output.unit: %
SENESCENT CELLS (%) HDF45: 4
//
compound: c1ccc(CNc2ncnc3nc[nH]c23)cc1 [6-benzylaminopurine, reference compound]
output.unit: %
SENESCENT CELLS (%) HDF45: 9
//
compound: Oc1cccc(CNc2ncnc3c2nc(Cl)n3C2CCCO2)c1 (stereo not shown)
output.unit: %
SENESCENT CELLS (%) HDF45: 5
//
compound: Ic1nc2c(NCc3ccco3)ncnc2n1C1CCCCO1 (stereo not shown)
output.unit: %
SENESCENT CELLS (%) HDF45: 5

# evaluate next
I would be grateful if you could share the reported SENESCENT CELLS (%) HDF45 for Fc1cccc(CNc2ncnc3c2nc(Br)n3C2CCCCO2)c1 (stereo not shown) .
5
